The reader will find reported GI50 values listed item by item below.
- Tested on: COLO 205
- test-name: NCI tumour cell line growth inhibition, 48 h
Activity calls are given as the source filed them. Cut-off read from the data, not from the text of the source: active = GI50 up to about 1.1 µM and inactive = higher.

>  <compound>
COc1ccc2ccccc2c1CN1CCOCCOCCN(Cc2c(OC)ccc3ccccc23)CCOCCOCC1

>  <GI50>
> 90.4 µM (inactive)

$$$$
>  <compound>
Nc1ncnc2c1ncn2C1CCC(CO)O1 (stereo not drawn)

>  <GI50>
> 100 µM (inactive)

$$$$
>  <compound>
CC1=C(C(=O)Nc2ccccc2)C(c2ccc(C(C)C)cc2)C(C(=O)Nc2ccccc2)=C(C)N1

>  <GI50>
12.9 µM (inactive)

$$$$

Entry source: ChEMBL document CHEMBL1201862
